tested on: cotton aphid (Aphis gossypii); assay: Cotton aphid test in the same manner, more definitive percent mortality at selected rates and exposure times (Table 3); format: in vivo; conditions: 1000 ppm; 72 hours exposure
parameter: Percent Mortality of Cotton Aphid on Cotton Plants
Please state the number and follow it with the unit.

Below, 2 compounds whose answers are already recorded.
compound | recorded-measurement
CN1CCN(C2Cc3ccccc3Sc3cc(F)c(Cl)cc32)CC1 (centres unmarked) [Compound 95] | 82%
CN1CCN(C2Cc3ccccc3Sc3c(F)cccc32)CC1 (centres unmarked) [Compound 94] | 100%

What does the record list as Percent Mortality of Cotton Aphid on Cotton Plants for CN1CCN(CCCN2c3ccccc3Sc3ccc(C(F)(F)F)cc32)CC1.Cl.Cl [Compound 207] ?
25%

Subsequent entry: CN1CCN(C2Cc3cc(F)ccc3Sc3ccc(Cl)cc32)CC1 (centres unmarked) [Compound 121]
65%

Subsequent entry: CSc1ccc2c(c1)C(N1CCN(C)CC1)Cc1ccccc1S2.O=C(O)/C=C\C(=O)O (centres unmarked) [Compound 103]
90%

---

system: cotton aphid (Aphis gossypii); assay: Cotton aphid test in the same manner, more definitive percent mortality at selected rates and exposure times (Table 3); assay type: in vivo; settings: 1000 ppm; 168 hours exposure
Each record here notes measured Percent Mortality of Cotton Aphid on Cotton Plants.
Provide the reading as a plain figure in %.

compound | recorded-measurement
CN1CCN(C2Cc3ccccc3Sc3ccc(OC(F)(F)C(F)F)cc32)CC1 (stereo not shown) | 100
CN1CCN(C2Cc3ccccc3Oc3ccc(C#C[Si](C)(C)C)cc32)CC1 (stereo not shown) | 83
CN1CCN(C2Cc3ccccc3Oc3c(Cl)cc(F)cc32)CC1 (stereo not shown) | 97
CSc1ccc2c(c1)C(N1CCCN(C)CC1)Cc1ccccc1S2 (stereo not shown) | 100

What does the record list as Percent Mortality of Cotton Aphid on Cotton Plants for CC(C)c1ccc2c(c1)C(N1CCN(C)CC1)Cc1ccc(F)cc1S2 (stereo not shown) ?
100

Subsequent entry: CN1CCN(C2=Nc3ccccc3Sc3ccc(Cl)cc32)CC1
55

Subsequent entry: CN1CCN(C2Cc3ccc(F)cc3Sc3ccc(OC(F)(F)F)cc32)CC1 (stereo not shown)
100

Subsequent entry: CN1CCN(C2Cc3ccccc3Oc3c(F)cc(Cl)cc32)CC1 (stereo not shown)
92

Subsequent entry: CN1CCN(C2Cc3ccccc3Sc3ccccc32)CC1.O=C(O)/C=C\C(=O)O (stereo not shown)
74

Subsequent entry: CN1CCCN(C2Cc3ccccc3Sc3ccc(OC(F)(F)F)cc32)CC1 (stereo not shown)
100

---

test system: cotton aphid (Aphis gossypii); assay: Cotton aphid test in the same manner, more definitive percent mortality at selected rates and exposure times (Table 3); assay type: in vivo; details: 100 ppm; 72 hours exposure
Each record here notes measured Percent Mortality of Cotton Aphid on Cotton Plants.
Provide the reading as a plain figure in %.

Below, 5 compounds whose answers are already recorded.
compound | assayed-target | recorded-measurement
CN1CCN(C2Cc3ccc(F)cc3Sc3ccccc32)CC1 (stereo not shown) | cotton aphid (Aphis gossypii) | 85
CSc1ccc2c(c1)C(N1CCN(C)CC1)Cc1cc(F)ccc1S2 (stereo not shown) | cotton aphid (Aphis gossypii) | 88
CN1CCN(C2Cc3ccccc3Sc3ccc(C4CCCC4)cc32)CC1 (stereo not shown) | cotton aphid (Aphis gossypii) | 78
CCSc1ccc2c(c1)C(N1CCN(C)CC1)Cc1ccc(F)cc1S2 (stereo not shown) | cotton aphid (Aphis gossypii) | 95
CC(=O)c1ccc2c(c1)C(N1CCN(C)CC1)Cc1ccccc1S2 (stereo not shown) | cotton aphid (Aphis gossypii) | 93

What does the record list as Percent Mortality of Cotton Aphid on Cotton Plants for CN1CCN(C2Cc3ccccc3Sc3cccc(C4CC4)c32)CC1 (stereo not shown) ?
92

Subsequent entry: CN1CCN(C2Cc3ccc(F)cc3Sc3ccc(C(F)(F)F)cc32)CC1.O=C(O)/C=C\C(=O)O.O=C(O)/C=C\C(=O)O (stereo not shown)
90

Taken from patent US20060111342A1.
